Tested on: anti-estriol-3-sulfate antibody immobilized on Sepharose 4B
Assay: Cross-reaction of various steroids in the radioimmunoassay (50% inhibition of labeled estriol-3-sulfate binding)
Parameters: species or system guinea pig
Conditions: mass ratio of non-labeled estriol-3-sulfate to each steroid required for 50% inhibition of labeled estriol-3-sulfate binding
Measured Cross-reaction (%) values are reported for all entries that follow.

Sample records with Cross-reaction (%):
C[C@]12CC[C@@H]3c4ccc(O)cc4CC[C@H]3[C@@H]1CC[C@@H]2O [Estradiol] : < 0.001%
C[C@]12CC[C@@H]3c4cc(O)c(O)cc4CC[C@H]3[C@@H]1CCC2=O [2-Hydroxyestrone] : < 0.001%
C[C@]12CC[C@@H]3c4ccc(O[C@@H]5O[C@H](C(=O)O)[C@@H](O)[C@H](O)[C@H]5O)cc4CC[C@H]3[C@@H]1C[C@@H](O)[C@@H]2O [Estriol-3-glucuronide] : 0.050%
C[C@]12CC[C@@H]3c4ccc(OS(=O)(=O)O)cc4CC[C@H]3[C@@H]1CC[C@@H]2O [Estradiol-3-sulfate] : 0.144%
COc1ccc2c(c1)CC[C@@H]1[C@@H]2CC[C@]2(C)C(=O)CC[C@@H]12 [Estrone methyl ether] : < 0.001%
C[C@]12CCC(=O)C=C1CC[C@@H]1[C@@H]2CC[C@]2(C)C(=O)CC[C@@H]12 [4-Androsterone-3,17-dione] : < 0.001%

// moving on: another record for Cross-reaction (%)
Data request: Tell me the measured Cross-reaction (%) of C[C@]12CC[C@@H]3c4ccc(O)cc4CC[C@H]3[C@@H]1CCC2=O [Estrone] , please.
Data returned: < 0.001%

// data source = patent US4740476A
